Molecular target: BTK protein (Homo sapiens)
Construct: endogenous in cells; host or cells: TMD-8 cells
Assay: Measurement of BTK protein degradation ability in TMD-8 cells (Western blotting)
Format: cell-based
Settings: compound 10 nM, harvested after 24 hours
Observed Property: BTK degradation (%) 10 nM

1) Cc1c(NC(=O)c2cnn(C(C)(C)C)c2)cc(F)cc1-c1ccnc(Nc2ccc(N3CCN(CC4CCN(c5ccc6c(c5)C(=O)N(C5CCC(=O)NC5=O)C6=O)CC4)CC3)cc2)n1 (centres unmarked)    6.5
2) Cc1cc(-c2ccnc(Nc3ccc(C4CCN(CC5CCN(c6cccc(N7CCC(=O)NC7=O)c6)CC5)CC4)cc3)n2)ccc1CNC(=O)c1cnn(C(C)C)c1    92.0
3) Cc1cc(-c2ccnc(Nc3ccc(N4CCN(CC5CN(c6ccc7c(c6)C(=O)N(C6CCC(=O)NC6=O)C7=O)C5)CC4)nc3)n2)ccc1CNC(=O)N1CC(OC(C)C)C1 (centres unmarked)    92
4) Cc1cc(-c2ccnc(Nc3ccc(N4CCC(C(=O)N5CCC(c6ccc(NC7CCC(=O)NC7=O)cc6)CC5)CC4)cc3)n2)ccc1CNC(=O)N1CC(OC(C)C)C1 (centres unmarked)    87.5
5) Cc1cc(-c2ccnc(Nc3cnn(C4CCN(CC5CN(c6ccc7c(c6)C(=O)N(C6CCC(=O)NC6=O)C7=O)C5)CC4)c3)n2)ccc1CNC(=O)c1cn(C(C)(C)C)nn1 (centres unmarked)    95.5
6) Cc1cc(-c2ccnc(Nc3ccc(CN4CCN(CC5CCN(c6cccc(N7CCC(=O)NC7=O)c6)CC5)CC4)cc3)n2)ccc1CNC(=O)c1cn(C(C)(C)C)nn1    91.5
7) Cc1cc(-c2ccnc(Nc3ccc(C4CCN(CC5CCN(c6ccc7c(c6)C(=O)N(C6CCC(=O)NC6=O)C7=O)CC5)CC4)nc3)n2)ccc1CNC(=O)N1CC(OC(C)C)C1 (centres unmarked)    93
8) Cc1cc(-c2ccnc(Nc3cnn(C4CCN(CC5CCN(c6ccc7c(c6)C(=O)N(C6CCC(=O)NC6=O)C7=O)CC5)CC4)c3)n2)ccc1CNC(=O)c1cnn(C(C)(C)C)c1 (centres unmarked)    92.5
9) Cc1cc(-c2ccnc(Nc3ccc(CN4CCC(CN5CCC(c6ccc(N7CCC(=O)NC7=O)cc6)CC5)CC4)cc3)n2)ccc1CNC(=O)c1cn(C(C)(C)C)nn1    70.5
10) Cc1cc(-c2ccnc(Nc3ccc(N4CCN(CC5CCN(c6ccc(N7CCC(=O)NC7=O)cc6)CC5)CC4)cc3)n2)ccc1CNC(=O)N1CC(OC(C)C)C1    91.5
11) Cc1cc(-c2ccnc(Nc3ccc(N4CCN(CC5CCN(c6ccc7c(c6)C(=O)N(C6CCC(=O)NC6=O)C7=O)CC5)CC4)cc3)n2)ccc1COC(=O)N1CC(OC(C)C)C1 (centres unmarked)    20.5

###

Biological target: BTK protein (Homo sapiens, UniProt Q06187)
Construct: endogenous in cells; host or cells: TMD-8 cells
Sequence (Q06187 whole entry): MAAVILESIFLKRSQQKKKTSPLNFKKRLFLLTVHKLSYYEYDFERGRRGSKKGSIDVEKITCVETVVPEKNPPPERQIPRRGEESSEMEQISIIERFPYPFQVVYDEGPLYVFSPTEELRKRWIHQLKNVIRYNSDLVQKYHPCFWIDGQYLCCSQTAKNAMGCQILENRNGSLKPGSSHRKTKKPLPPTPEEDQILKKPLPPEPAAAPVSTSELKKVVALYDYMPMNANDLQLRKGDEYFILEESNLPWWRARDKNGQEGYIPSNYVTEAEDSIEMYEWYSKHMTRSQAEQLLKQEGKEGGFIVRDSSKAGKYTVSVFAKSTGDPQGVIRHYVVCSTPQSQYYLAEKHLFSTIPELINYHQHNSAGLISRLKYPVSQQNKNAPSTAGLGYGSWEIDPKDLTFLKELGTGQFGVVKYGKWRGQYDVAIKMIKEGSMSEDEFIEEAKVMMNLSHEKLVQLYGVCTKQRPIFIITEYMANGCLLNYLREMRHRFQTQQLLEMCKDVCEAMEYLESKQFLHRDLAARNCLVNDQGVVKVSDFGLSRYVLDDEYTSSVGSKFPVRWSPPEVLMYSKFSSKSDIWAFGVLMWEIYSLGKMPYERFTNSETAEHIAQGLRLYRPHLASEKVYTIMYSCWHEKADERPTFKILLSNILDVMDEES
Assay: Measurement of BTK protein degradation ability in TMD-8 cells (Western blotting)
Assay type: cell-based
Conditions: compound 1 nM, harvested after 24 hours
BTK degradation (%) 1 nM for assorted compounds
Observed Property: BTK degradation (%) 1 nM

1) Cc1cc(-c2ccnc(Nc3ccc(N4CCN(CC5CCN(c6ccc(NC7CCC(=O)NC7=O)cc6)CC5)CC4)cc3)n2)ccc1CNC(=O)N1CC(OC(C)C)C1 (centres unmarked)    37.7
2) Cc1cc(-c2ccnc(Nc3ccc(N4CCC(CN5CCC(c6cccc(NC7CCC(=O)NC7=O)c6)CC5)CC4)cc3)n2)ccc1CNC(=O)N1CC(OC(C)C)C1 (centres unmarked)    −9.0
3) Cc1cc(-c2ccnc(Nc3ccc(N4CCN(CC5CCN(c6cccc(N7CCC(=O)NC7=O)c6)CC5)CC4)nc3)n2)ccc1CNC(=O)c1cnn(C(C)C)c1    32.0
4) Cc1cc(-c2ccnc(Nc3ccc(N4CCN(CC5CCN(C(=O)c6cccc(NC7CCC(=O)NC7=O)c6)CC5)CC4)cc3)n2)ccc1CNC(=O)c1cn(C(C)(C)C)nn1 (centres unmarked)    67.5
5) Cc1cc(-c2ccnc(Nc3ccc(CN4CCN(CC5CCN(c6ccc(N7CCC(=O)NC7=O)cc6)CC5)CC4)cc3)n2)ccc1CNC(=O)c1cn(C(C)(C)C)nn1    14.0
